target: Recombinant human Bcl-2 protein (Homo sapiens (Human)); experiment: Bcl-2 TR-FRET Assay; type: binding; conditions: Bcl-2 wild type, TR-FRET; read-out: Biochemical assay (IC50, nM) Bcl-2 WT
Sequence (P10415 whole entry): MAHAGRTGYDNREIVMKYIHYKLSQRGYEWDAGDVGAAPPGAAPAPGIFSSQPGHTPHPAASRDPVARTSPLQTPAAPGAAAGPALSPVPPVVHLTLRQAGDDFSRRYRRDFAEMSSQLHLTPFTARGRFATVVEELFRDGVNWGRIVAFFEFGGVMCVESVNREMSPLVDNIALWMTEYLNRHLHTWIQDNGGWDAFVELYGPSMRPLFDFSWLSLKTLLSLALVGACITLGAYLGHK
Readout: IC50 (nM)
Answers are plain numbers, in nM.

Batch: IC50 for all items listed.
1. COc1cc(CN2CCN(C3CC4(C3)CN(c3ccc(C(=O)NS(=O)(=O)c5ccc(NC[C@H]6CC[C@](C)(O)CC6)c([N+](=O)[O-])c5)c(Oc5cnc6[nH]cc(F)c6c5)c3)C4)[C@H](c3ccccc3C(C)C)C2)cc2c1OCCCC2 [Example 347]
2. COc1ccc(CN2CCN(C3CC4(CCN(c5ccc(C(=O)NS(=O)(=O)c6ccc(NC[C@H]7CC[C@](C)(O)CC7)c([N+](=O)[O-])c6)c(Oc6cnc7[nH]ccc7c6)c5)CC4)C3)C(c3ccccc3C(C)C)C2)cc1C#N (stereo partly shown) [Example 132]
3. CC(C)c1ccccc1C1CN(C2CCOC2)CCN1C1CC2(CCN(c3ccc(C(=O)NS(=O)(=O)c4ccc(NC[C@H]5CC[C@](C)(O)CC5)c([N+](=O)[O-])c4)c(Oc4cnc5[nH]ccc5c4)c3)CC2)C1 (stereo partly shown) [Example 8]
4. COc1ccc(CN2CCN(C3CC4(CCN(c5ccc(C(=O)NS(=O)(=O)c6ccc(NC[C@H]7CC[C@](C)(O)CC7)c([N+](=O)[O-])c6)c(Oc6cnc7[nH]ccc7c6)c5)CC4)C3)C(c3ccccc3C(C)C)C2)cc1C (stereo partly shown) [Example 144]

1: 0.2; 2: 0.26; 3: 0.02; 4: 0.26
